In this section we review reported protease stability score values for a set of sequences.
Assay: protease stability score; higher = more stable; yeast display proteolysis, trypsin and chymotrypsin;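 further: relative to predicted unfolded state with 0 unfolded-like and 1 meaning tenfold more protease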
Recorded Endpoint: protease stability score

- Polymer Sequence: "DEREEELHHMLEVLEFAFHTGDFEKLSKMFDPHVRIDVNGQELHGWKHAHEHIEDLFRKVKNIRLEFRDIRFQGDKIDIDGIMIFNGVRHEVKIITVKVNGRWLWRSINIH"
  Value Observed: 2.33
- Polymer Sequence: "SEDEELAESFSRLFFEAEETGDEESLLEMADPNVRVHIDGREIHGREEWIKHLRTFGVERIRIHMRHVEIQGDKLRLDLIVHQGDKTVRIEITIKKVDGRWVVHSIHWS"
  Value Observed: 0.868
- Polymer Sequence: "NEEKETADTFLRHLVHRLHTGDEDMLMRLADPHVLIIQGDKTYHGWHWFERNFLEQINRFKGLTVKVERKDVHLFENRLILEGTLHLEFNGRDVHIEQEIIVHKINGRWILTHYMLI"
  Value Observed: 0.813
- Polymer Sequence: "SERHEILRLITEIWDHLKHTGDEDSLADLFDPHARMIWNGRDIHGWSNLIEAFRKILEFLGIDRIHIENTEMRLQGDKSHNRTDLNVNGKHLDTRVHLDVVDGRIRVTEVRIH"
  Value Observed: 1.06
- Polymer Sequence: "SEEEQEFRLILKEHLDKLETGDEDDLHRLMDPNVRIEIGDKEMHGREHATRFFRELRVEHVHLESYELQGEKVNLHGRMIGDINGKKVDRTVHIFLLKVNGRWIIHSWEVV"
  Value Observed: 2.14
- Polymer Sequence: "DEEEELSTEVMEHVLELVLTGDEERLWKLFDPHVRLDIDGKHIIGRELVSKINKDRRRELRIHHVELKRFETQGEKVHSDIRVDGWIDGRRIDTDAHVIVVVVDGRLKSLRIIHH"
  Value Observed: 1.18

* * *

Assay: protease stability score; higher = more stable; yeast display proteolysis, trypsin and chymotrypsin;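 further: relative to predicted unfolded state with 0 unfolded-like and 1 meaning tenfold more protease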
In this section we review reported protease stability score values for a set of sequences.

- Polymer Sequence: "DEEEEEVKKVFEMLEKSLETGDEKLWEHMADPNTRIDIGDKEIHGRESFHEIVKHIRIKDIRMRIHEWRTYDGRLDLRGQVELHLNINGKHLDITVEHRLIIVKINGRWLLEEETIV"
  protease stability score: -0.109
- Polymer Sequence: "SEINERTERLMKWLLHAILTGDEDLLSTLADPNVRVIVGDKSVIGMESWYRLFEEELRHLGIKHMQLDPRHVDTQGDKARVETRLRVWVDGVELTHETRLHLDVVNGRITKISIRIH"
  protease stability score: 1.16
- Polymer Sequence: "DKEEKELEELVKLMVELSDTGDWKTFYQLADPHTKLHNLVDGKWDEQHGRENFVEVERKLRERFKGLRVERHDISVQGNKVHVDVILHVNGREMEIDEVFVIINGKLESVEIHVR"
  protease stability score: 1.19
- Polymer Sequence: "NEEEEESKWAYEEMIKVVKTGDEERLKELADPHTRVHMLVNGRLHNLHGREFLVLAWRLLGFDHLELKRMHVEVVNGRVHINLHGHVEINGRTHTLHIHIDAEKVDGRWIVRRVEIRSE"
  protease stability score: 1.5
- Polymer Sequence: "SELEELSKHHLELLTHSHRTGDEKSFVELLDPHARIHQGDFHFHGRKLIDEFFRQARIHHIHVDDSELQGNWVFVHGRVEGNFNGVRSKITTHIIELKVNGRWLLHNVHIA"
  protease stability score: 0.779
